Origin of measurements: PubChem BioAssay AID330

System: P388 leukemia ip, CD2F1 mice, survival T/C
Assay: NCI In Vivo Anticancer Drug Screen. Data for tumor model P388 Leukemia (intraperitoneal) in CD2F1 (CDF1) mice
Conditions: endpoint: median survival time; dose: 200.0 mg/kg/injection; schedule: Q01DX009 (ip); vehicle: Klucel (hydroxypropylcellulose) (HPC); higher = longer survival
Inconclusive results and toxic doses are left out.
Please respond with reported T/C for every item in the list.

Record CC/C=c1/[nH]c(=O)/c(=C\c2ccc([N+](=O)[O-])cc2)[nH]c1=O . Reported T/C: 94 % of control

Record N#CC(=Nc1ccccc1)c1cccc(Br)c1 . Reported T/C: 117 % of control

Record O=C1CCCC(C(Sc2ccccc2)(Sc2ccccc2)Sc2ccccc2)C1 (configuration not stated) . Reported T/C: 93 % of control

Record O=C1OC(c2ccccc2)Sc2ccccc21 (configuration not stated) . Reported T/C: 95 % of control

Record Cc1ccc(S(=O)(=O)NN=C(c2ccccc2)c2ccccc2)cc1 . Reported T/C: 86 % of control

Record NC(CCC(N)C(=O)O)C(=O)O (configuration not stated) . Reported T/C: 86 % of control

Record CC(C)c1ccccc1[S+]1OC(C)(C)c2ccccc21 (configuration not stated) . Reported T/C: 95 % of control

Record CC(=O)Nc1c(Br)cc(C)cc1Br . Reported T/C: 100 % of control

Record Cc1ccc2nc(NC(=S)NCCNC(=S)Nc3ccc4cc(C)ccc4n3)ccc2c1 . Reported T/C: 90 % of control

Record O=S(=O)(Nc1ccc2ccc3cccc4ccc1c2c34)c1ccccc1 . Reported T/C: 100 % of control

Record CC12CCC3C(C1)C(C(=O)O2)C(=O)OC3(C)C (configuration not stated) . Reported T/C: 97 % of control

Record O=C(NNc1nc(CCl)cs1)c1ccccc1Cl . Reported T/C: 94 % of control
